Item-by-item account of cytotoxicity at 10 µM
# test_summary: Toxicity liver stage against HepG2, at 10uM
# Format: cell-based
# Design: test concentration 10 uM, cell line HepG2-A16-CD81EGFP
# condition_context: human, HepG2-A16-CD81EGFP cells; read-out: INHIBITION
Please respond with the number in % and leave the unit unwritten.

Below, each entry is followed by its recorded cytotoxicity at 10 µM result.
compound	units_label	cytotoxicity at 10 µM
Cc1cc2c(cc1C)OC(C(=O)NCCNC(=O)C1CCCC1)C2 (stereo not drawn)	%	7.71
C=Cc1cccc(CN2C[C@@H]3CC[C@H]2CN(Cc2c(C)noc2C)C3)c1	%	-6.58

Let us move to another entry and its cytotoxicity at 10 µM.
Check the records and state cytotoxicity at 10 µM for Cc1n[nH]c(=O)c2c(NC(=O)CN3CCCC(C(F)(F)F)C3)oc(C)c12 (stereo not drawn)
-4.87
